Data provenance is patent US9686984B2.

System: Zymoseptoria tritici
Assay: Leaf Blotch of Wheat (SEPTTR) disease control on wheat seedlings
Format: in vivo
Conditions: 72 h, Low Volume (121.5 g/H), 3 Day Curative, read-out: SEPTTR disease control, 3 DC
parameter: pest or weed control at 121.5 g/ha

{"compound": "COc1ccnc(C(=O)N[C@H]2CCO[C@H](CCc3ccc(F)cc3)[C@@H](CCC(C)C)[C@H](C)OC2=O)c1OCOC(C)=O [Compound 27]", "result": "> 70%"}
{"compound": "COCC[C@H]1OCC[C@H](NC(=O)c2nccc(OC)c2OCOC(C)=O)C(=O)O[C@@H](C)[C@@H]1Cc1ccc(F)cc1 [Compound 25]", "result": "< 70%"}
{"compound": "CCCC[C@H]1[C@H](C)OC(=O)[C@@H](NC(=O)c2nccc(OC)c2OCOC(C)=O)CCO[C@@H]1COC(=O)C(C)C [Compound 32]", "result": "> 70%"}
{"compound": "CCCC[C@H]1[C@H](C)OC(=O)[C@@H](NC(=O)c2nccc(OC)c2OCOC(=O)COCC)CCO[C@@H]1CCc1ccccc1 [Compound 45]", "result": "> 70%"}
{"compound": "CCCC[C@H]1[C@H](C)OC(=O)[C@@H](NC(=O)c2nccc(OC)c2OC(C)=O)CCO[C@@H]1CCc1ccccc1 [Compound 13]", "result": "> 70%"}
{"compound": "CCC[C@H]1OCC[C@H](NC(=O)c2nccc(OC)c2OCOC(=O)COCC)C(=O)O[C@@H](C)[C@@H]1Cc1ccccc1 [Compound 43]", "result": "> 70%"}
{"compound": "CCCC[C@H]1[C@H](C)OC(=O)[C@@H](NC(=O)c2nccc(OC)c2OCOC(=O)COCC)CCO[C@@H]1CC [Compound 46]", "result": "< 70%"}
{"compound": "COc1ccnc(C(=O)N[C@H]2CCOC[C@@H](Cc3ccccc3-c3ccccc3)[C@H](C)OC2=O)c1OCOC(C)=O [Compound 28]", "result": "> 70%"}
